All figures here come from patent US8981087B2.

tested.on: PI3K-p110β (Homo sapiens)
Sequence (P42338 whole entry): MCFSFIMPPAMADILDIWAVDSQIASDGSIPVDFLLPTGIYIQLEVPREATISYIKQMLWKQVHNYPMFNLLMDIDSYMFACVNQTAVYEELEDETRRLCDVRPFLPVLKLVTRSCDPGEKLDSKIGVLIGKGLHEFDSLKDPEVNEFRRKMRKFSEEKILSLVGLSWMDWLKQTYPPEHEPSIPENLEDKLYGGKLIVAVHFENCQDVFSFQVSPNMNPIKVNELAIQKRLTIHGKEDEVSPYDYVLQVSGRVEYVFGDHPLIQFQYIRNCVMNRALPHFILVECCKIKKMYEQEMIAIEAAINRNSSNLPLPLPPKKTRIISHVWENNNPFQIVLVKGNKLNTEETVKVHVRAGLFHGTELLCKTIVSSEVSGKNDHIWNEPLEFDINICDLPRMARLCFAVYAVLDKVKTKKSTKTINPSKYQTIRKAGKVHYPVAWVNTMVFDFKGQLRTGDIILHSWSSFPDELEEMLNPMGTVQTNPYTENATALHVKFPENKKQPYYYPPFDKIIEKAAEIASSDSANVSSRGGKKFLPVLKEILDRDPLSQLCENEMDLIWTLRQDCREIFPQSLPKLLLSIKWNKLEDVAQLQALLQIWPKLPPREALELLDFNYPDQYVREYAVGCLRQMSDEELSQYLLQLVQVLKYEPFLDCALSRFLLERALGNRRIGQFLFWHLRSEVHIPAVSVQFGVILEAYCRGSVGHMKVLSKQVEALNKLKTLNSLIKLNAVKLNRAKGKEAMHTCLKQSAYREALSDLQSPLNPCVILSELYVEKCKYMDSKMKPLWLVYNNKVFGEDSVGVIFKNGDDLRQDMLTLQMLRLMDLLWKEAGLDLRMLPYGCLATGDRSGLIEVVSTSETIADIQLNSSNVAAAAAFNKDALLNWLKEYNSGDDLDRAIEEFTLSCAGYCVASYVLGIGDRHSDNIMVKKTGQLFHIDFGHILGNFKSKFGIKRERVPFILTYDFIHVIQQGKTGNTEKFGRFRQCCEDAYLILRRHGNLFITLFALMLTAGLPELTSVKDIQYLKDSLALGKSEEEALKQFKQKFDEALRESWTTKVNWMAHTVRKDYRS
Sequence (P27986 whole entry partner): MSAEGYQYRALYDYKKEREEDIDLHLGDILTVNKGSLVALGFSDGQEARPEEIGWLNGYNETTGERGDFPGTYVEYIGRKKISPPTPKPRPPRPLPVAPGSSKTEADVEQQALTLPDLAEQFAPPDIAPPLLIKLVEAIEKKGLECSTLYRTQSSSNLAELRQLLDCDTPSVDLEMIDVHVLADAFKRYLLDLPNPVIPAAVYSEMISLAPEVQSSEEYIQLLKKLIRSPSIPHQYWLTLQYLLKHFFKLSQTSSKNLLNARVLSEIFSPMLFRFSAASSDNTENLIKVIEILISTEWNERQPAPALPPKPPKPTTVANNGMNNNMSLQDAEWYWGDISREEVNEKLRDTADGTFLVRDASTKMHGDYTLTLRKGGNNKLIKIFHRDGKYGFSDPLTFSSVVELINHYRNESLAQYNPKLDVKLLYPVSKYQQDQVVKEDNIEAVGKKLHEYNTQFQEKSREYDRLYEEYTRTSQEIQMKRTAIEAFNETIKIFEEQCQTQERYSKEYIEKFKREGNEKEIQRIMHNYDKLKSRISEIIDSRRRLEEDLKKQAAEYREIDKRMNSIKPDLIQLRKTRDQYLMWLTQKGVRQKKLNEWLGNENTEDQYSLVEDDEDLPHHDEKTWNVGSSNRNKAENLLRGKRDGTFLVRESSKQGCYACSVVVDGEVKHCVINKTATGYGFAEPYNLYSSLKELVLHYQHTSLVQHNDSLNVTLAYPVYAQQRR
test.details: Biochemical PI3K-p110β inhibition
condition.summary: Class IA enzyme; read-out: IC50 PI3K-p110β (uM) (Class IA Enzyme)
measure.name: IC50 (µM)
One number for each entry, in µM.

Memo: "Nc1ccc(-c2cccc3c(=O)nc(N4CCOCC4)oc23)cc1" , reported IC50: 2.34

* * *

tested.on: PI3K-p110γ (Homo sapiens, UniProt P48736)
Sequence (P48736 whole entry): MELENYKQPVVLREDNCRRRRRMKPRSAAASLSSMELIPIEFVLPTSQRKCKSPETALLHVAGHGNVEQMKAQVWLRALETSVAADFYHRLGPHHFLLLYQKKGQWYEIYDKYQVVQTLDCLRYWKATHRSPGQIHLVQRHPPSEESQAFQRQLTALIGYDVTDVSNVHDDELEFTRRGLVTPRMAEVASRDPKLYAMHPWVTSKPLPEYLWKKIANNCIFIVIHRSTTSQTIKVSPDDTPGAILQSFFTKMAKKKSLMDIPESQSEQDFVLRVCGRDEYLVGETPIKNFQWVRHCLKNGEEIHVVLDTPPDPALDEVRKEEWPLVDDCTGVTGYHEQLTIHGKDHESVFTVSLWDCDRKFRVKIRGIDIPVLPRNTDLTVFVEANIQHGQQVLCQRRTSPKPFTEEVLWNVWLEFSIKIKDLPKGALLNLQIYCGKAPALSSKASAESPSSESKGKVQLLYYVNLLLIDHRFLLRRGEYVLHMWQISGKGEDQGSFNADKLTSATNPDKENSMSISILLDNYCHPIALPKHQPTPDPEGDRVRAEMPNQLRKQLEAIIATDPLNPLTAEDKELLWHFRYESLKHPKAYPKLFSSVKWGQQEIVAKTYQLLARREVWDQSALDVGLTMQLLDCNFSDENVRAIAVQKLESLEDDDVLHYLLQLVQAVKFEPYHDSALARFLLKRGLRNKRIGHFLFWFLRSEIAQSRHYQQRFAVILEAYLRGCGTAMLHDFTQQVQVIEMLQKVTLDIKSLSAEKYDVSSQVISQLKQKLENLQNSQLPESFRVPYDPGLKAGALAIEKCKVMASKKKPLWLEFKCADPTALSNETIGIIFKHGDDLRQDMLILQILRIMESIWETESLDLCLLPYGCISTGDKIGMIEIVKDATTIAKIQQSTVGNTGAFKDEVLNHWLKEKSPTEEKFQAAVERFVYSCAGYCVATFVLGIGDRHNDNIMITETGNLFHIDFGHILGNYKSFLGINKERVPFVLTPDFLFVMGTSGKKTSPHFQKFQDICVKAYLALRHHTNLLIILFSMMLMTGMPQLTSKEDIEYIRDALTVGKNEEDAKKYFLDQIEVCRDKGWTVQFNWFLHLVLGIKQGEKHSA
test.details: Biochemical PI3K-p110γ inhibition
condition.summary: Class IB enzyme; read-out: IC50 PI3K-p110γ (uM) (Class IB Enzyme)
measure.name: IC50 (µM)
Give bare numbers, in µM.

Looking up "Nc1ccc(-c2cccc3c(=O)nc(N4CCOCC4)oc23)cc1" , I found its IC50 recorded as 20.5
